Every entry's value here was drawn from paper PMC3849266.

- Run Description: Biodistribution and in vivo binding specificity in PC-3 tumor-bearing BALB/c nu/nu mice
- Reported Conditions: male, BALB/c nu/nu, mouse, kidney, iv, 45 pmol, total radioactivity, male BALB/c nu/nu mice with PC-3 xenografts, 45 pmol i.v., 1 h p.i.; read-out: Kidney uptake
Reported Metric: tissue uptake at 1 h (%ID/g)

Compound: CC(C)C[C@H](NC(=O)C[C@H](O)[C@H](CC(C)C)NC(=O)[C@H](Cc1c[nH]cn1)NC(=O)CNC(=O)[C@@H](NC(=O)[C@H](C)NC(=O)[C@H](Cc1c[nH]c2ccccc12)NC(=O)[C@H](CCC(N)=O)NC(=O)[C@@H](Cc1ccccc1)NC(=O)COCCOCCNC(=O)CN1CCN(CC(=O)O)CCN(CC(=O)O)CC1)C(C)C)C(N)=O [[^18F]AlF-NOTA-P2-RM26]
Data Value: 3.6

---

- Tested Target: murine GRPRs (Mus musculus)
- Construct: from tissue; host or cells: organs of male NMRI mice, in vivo (pancreas, stomach, small intestine and others)
- Run Description: Biodistribution and in vivo binding specificity in NMRI mice
- Reported Conditions: muscle, iv, total radioactivity, male NMRI mice, 45 pmol i.v., 1 h p.i., read-out: Muscle uptake
Reported Metric: tissue uptake at 1 h (%ID/g)

Compound: CC(C)C[C@H](NC(=O)C[C@H](O)[C@H](CC(C)C)NC(=O)[C@H](Cc1c[nH]cn1)NC(=O)CNC(=O)[C@@H](NC(=O)[C@H](C)NC(=O)[C@H](Cc1c[nH]c2ccccc12)NC(=O)[C@H](CCC(N)=O)NC(=O)[C@@H](Cc1ccccc1)NC(=O)COCCOCCNC(=O)CN1CCN(CC(=O)O)CCN(CC(=O)O)CC1)C(C)C)C(N)=O [[^18F]AlF-NOTA-P2-RM26]
Tested Target: murine GRPRs (Mus musculus)
Reported Metric: tissue uptake at 1 h
Data Value: 0.09

---

- Run Description: Biodistribution and in vivo binding specificity in PC-3 tumor-bearing BALB/c nu/nu mice
- Reported Conditions: male, BALB/c nu/nu, mouse, lung, iv, 45 pmol, total radioactivity, male BALB/c nu/nu mice with PC-3 xenografts, 45 pmol i.v., 3 h p.i.; read-out: Lung uptake

Compound: CC(C)C[C@H](NC(=O)C[C@H](O)[C@H](CC(C)C)NC(=O)[C@H](Cc1c[nH]cn1)NC(=O)CNC(=O)[C@@H](NC(=O)[C@H](C)NC(=O)[C@H](Cc1c[nH]c2ccccc12)NC(=O)[C@H](CCC(N)=O)NC(=O)[C@@H](Cc1ccccc1)NC(=O)COCCOCCNC(=O)CN1CCN(CC(=O)O)CCN(CC(=O)O)CC1)C(C)C)C(N)=O [[^18F]AlF-NOTA-P2-RM26]
tissue uptake at 3 h, %ID/g: 0.2

---

- Run Description: Biodistribution and in vivo binding specificity in PC-3 tumor-bearing BALB/c nu/nu mice
- Reported Conditions: male, BALB/c nu/nu, mouse, pancreas, iv, 45 pmol, total radioactivity, male BALB/c nu/nu mice with PC-3 xenografts, 45 pmol i.v., 1 h p.i.; read-out: Pancreas uptake

Molecule: CC(C)C[C@H](NC(=O)C[C@H](O)[C@H](CC(C)C)NC(=O)[C@H](Cc1c[nH]cn1)NC(=O)CNC(=O)[C@@H](NC(=O)[C@H](C)NC(=O)[C@H](Cc1c[nH]c2ccccc12)NC(=O)[C@H](CCC(N)=O)NC(=O)[C@@H](Cc1ccccc1)NC(=O)COCCOCCNC(=O)CN1CCN(CC(=O)O)CCN(CC(=O)O)CC1)C(C)C)C(N)=O [[^18F]AlF-NOTA-P2-RM26]
tissue uptake at 1 h, %ID/g: 13

---

- Run Description: Biodistribution and in vivo binding specificity in PC-3 tumor-bearing BALB/c nu/nu mice
- Reported Conditions: mouse, gastrointestinal tract (whole sample), iv, total radioactivity; male BALB/c nu/nu mice with PC-3 xenografts, 45 pmol i.v., blocked (co-injected 20 nmol non-labeled peptide), 1 h p.i.; read-out: GI tract uptake

Molecule: CC(C)C[C@H](NC(=O)C[C@H](O)[C@H](CC(C)C)NC(=O)[C@H](Cc1c[nH]cn1)NC(=O)CNC(=O)[C@@H](NC(=O)[C@H](C)NC(=O)[C@H](Cc1c[nH]c2ccccc12)NC(=O)[C@H](CCC(N)=O)NC(=O)[C@@H](Cc1ccccc1)NC(=O)COCCOCCNC(=O)CN1CCN(CC(=O)O)CCN(CC(=O)O)CC1)C(C)C)C(N)=O [[^18F]AlF-NOTA-P2-RM26]
tissue uptake dose at 1 h: 4.8 %ID

---

- Run Description: Biodistribution and in vivo binding specificity in NMRI mice
- Reported Conditions: mouse, gastrointestinal tract (whole sample), iv, total radioactivity; male NMRI mice, 45 pmol i.v., 1 h p.i.; read-out: GI tract uptake

Molecule: CC(C)C[C@H](NC(=O)C[C@H](O)[C@H](CC(C)C)NC(=O)[C@H](Cc1c[nH]cn1)NC(=O)CNC(=O)[C@@H](NC(=O)[C@H](C)NC(=O)[C@H](Cc1c[nH]c2ccccc12)NC(=O)[C@H](CCC(N)=O)NC(=O)[C@@H](Cc1ccccc1)NC(=O)COCCOCCNC(=O)CN1CCN(CC(=O)O)CCN(CC(=O)O)CC1)C(C)C)C(N)=O [[^18F]AlF-NOTA-P2-RM26]
tissue uptake dose at 1 h / %ID: 11

---

- Run Description: Biodistribution and in vivo binding specificity in PC-3 tumor-bearing BALB/c nu/nu mice
- Reported Conditions: male, BALB/c nu/nu, mouse, liver, iv, 45 pmol, total radioactivity, male BALB/c nu/nu mice with PC-3 xenografts, 45 pmol i.v., 6 h p.i.; read-out: Liver uptake
Reported Metric: tissue uptake at 6 h (%ID/g)

Molecule: CC(C)C[C@H](NC(=O)C[C@H](O)[C@H](CC(C)C)NC(=O)[C@H](Cc1c[nH]cn1)NC(=O)CNC(=O)[C@@H](NC(=O)[C@H](C)NC(=O)[C@H](Cc1c[nH]c2ccccc12)NC(=O)[C@H](CCC(N)=O)NC(=O)[C@@H](Cc1ccccc1)NC(=O)COCCOCCNC(=O)CN1CCN(CC(=O)O)CCN(CC(=O)O)CC1)C(C)C)C(N)=O [[^18F]AlF-NOTA-P2-RM26]
Measurement Units: %ID/g
Data Value: 0.1

---

- Run Description: Biodistribution and in vivo binding specificity in PC-3 tumor-bearing BALB/c nu/nu mice
- Reported Conditions: male, BALB/c nu/nu, mouse, stomach, iv, 45 pmol, total radioactivity, male BALB/c nu/nu mice with PC-3 xenografts, 45 pmol i.v., 1 h p.i.; read-out: Stomach uptake
Reported Metric: tissue uptake at 1 h (%ID/g)

Compound: CC(C)C[C@H](NC(=O)C[C@H](O)[C@H](CC(C)C)NC(=O)[C@H](Cc1c[nH]cn1)NC(=O)CNC(=O)[C@@H](NC(=O)[C@H](C)NC(=O)[C@H](Cc1c[nH]c2ccccc12)NC(=O)[C@H](CCC(N)=O)NC(=O)[C@@H](Cc1ccccc1)NC(=O)COCCOCCNC(=O)CN1CCN(CC(=O)O)CCN(CC(=O)O)CC1)C(C)C)C(N)=O [[^18F]AlF-NOTA-P2-RM26]
Data Value: 2.4

---

- Tested Target: murine GRPRs (Mus musculus, UniProt P21729)
- Construct: from tissue; host or cells: organs of male NMRI mice, in vivo (pancreas, stomach, small intestine and others)
- Sequence (P21729 whole entry): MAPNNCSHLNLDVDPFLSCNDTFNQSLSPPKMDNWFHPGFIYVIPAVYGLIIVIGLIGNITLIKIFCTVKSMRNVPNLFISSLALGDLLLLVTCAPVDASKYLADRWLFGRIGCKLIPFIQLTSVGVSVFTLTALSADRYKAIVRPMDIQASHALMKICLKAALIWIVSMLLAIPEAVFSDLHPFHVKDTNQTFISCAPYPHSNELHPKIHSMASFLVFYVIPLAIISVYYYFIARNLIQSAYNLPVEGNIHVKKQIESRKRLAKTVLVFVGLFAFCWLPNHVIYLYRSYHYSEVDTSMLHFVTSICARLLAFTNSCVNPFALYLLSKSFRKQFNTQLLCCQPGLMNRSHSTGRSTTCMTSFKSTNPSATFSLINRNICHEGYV
- Run Description: Biodistribution and in vivo binding specificity in NMRI mice
- Reported Conditions: stomach, iv, total radioactivity, male NMRI mice, 45 pmol i.v., 1 h p.i., read-out: Stomach uptake
- Text: All animal studies were planned and performed in accordance with the national legislation on the protection of laboratory animals and the Ethic Committee for Animal Research of the Uppsala University approved the study plans. Randomly divided groups of 4 mice per data point were used in all experiments. […] BALB/c nu/nu male mice with PC-3 xenografts (weight 20±1 g at the time of the experiment) were used for tumor targeting and imaging studies. […]
Reported Metric: tissue uptake at 1 h (%ID/g)

Compound: CC(C)C[C@H](NC(=O)C[C@H](O)[C@H](CC(C)C)NC(=O)[C@H](Cc1c[nH]cn1)NC(=O)CNC(=O)[C@@H](NC(=O)[C@H](C)NC(=O)[C@H](Cc1c[nH]c2ccccc12)NC(=O)[C@H](CCC(N)=O)NC(=O)[C@@H](Cc1ccccc1)NC(=O)COCCOCCNC(=O)CN1CCN(CC(=O)O)CCN(CC(=O)O)CC1)C(C)C)C(N)=O [[^18F]AlF-NOTA-P2-RM26]
Data Value: 2

---

- Run Description: Biodistribution and in vivo binding specificity in PC-3 tumor-bearing BALB/c nu/nu mice
- Reported Conditions: male, BALB/c nu/nu, mouse, tumor (PC-3 xenograft), iv, 45 pmol, total radioactivity, male BALB/c nu/nu mice with PC-3 xenografts, 45 pmol i.v., 1 h p.i.; read-out: Tumor uptake
Reported Metric: tissue uptake at 1 h

Molecule: CC(C)C[C@H](NC(=O)C[C@H](O)[C@H](CC(C)C)NC(=O)[C@H](Cc1c[nH]cn1)NC(=O)CNC(=O)[C@@H](NC(=O)[C@H](C)NC(=O)[C@H](Cc1c[nH]c2ccccc12)NC(=O)[C@H](CCC(N)=O)NC(=O)[C@@H](Cc1ccccc1)NC(=O)COCCOCCNC(=O)CN1CCN(CC(=O)O)CCN(CC(=O)O)CC1)C(C)C)C(N)=O [[^18F]AlF-NOTA-P2-RM26]
Data Value: 6.3 %ID/g
